Values compiled from the supplement of paper PMC6757056.

Below: a set of entries, each annotated with reported normalized RNA/DNA level with ligand (log10).
B1: library; a variant is named by its letters at N, in order (parent)
chain: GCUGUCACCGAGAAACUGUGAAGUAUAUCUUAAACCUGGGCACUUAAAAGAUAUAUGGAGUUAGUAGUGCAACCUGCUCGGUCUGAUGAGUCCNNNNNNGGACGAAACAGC

# Variants of: B1
# RUN DESCRIPTION: normalized RNA/DNA level with ligand (relative to sTRSVctl = 100) (log10 (% of sTRSVctl)); HEK293T; ligand: cyclic di-GMP (c-di-GMP-II aptamer); ligand concentration (+) RNA-Seq: 1 mM; higher = less ribozyme self-cleavage, higher mRNA level
# MEASUREMENT SETUP: reporter: mCherry (pCS4076), ligand present: yes
READOUT: normalized RNA/DNA level with ligand (log10)

{"columns": ["CHANGES", "NUMERIC READOUT"],
 "data": [
  ["CUUCCU", 1.8],
  ["GAUUGA", 1.7],
  ["CGGUCU", 1.72],
  ["AAUUGU", 1.83],
  ["CGUACC", 1.89],
  ["CGUCUU", 1.66],
  ["UGCGGG", 1.92],
  ["UCCCCC", 1.92],
  ["UAGAAA", 1.75],
  ["GAGGCG", 1.9],
  ["AGCCGU", 1.77],
  ["CCCGAA", 1.64],
  ["UCGAGU", 1.73],
  ["GCGACU", 1.73],
  ["AGCUCG", 1.88],
  ["CCGGUU", 1.78],
  ["CAAUCU", 1.71],
  ["CGGCAG", 1.86],
  ["UCACUC", 1.89],
  ["GACUCG", 1.87],
  ["CGAGCA", 1.89],
  ["GUCACU", 1.85]
]}
